IC50 values, listed per item
Target: PDE1B (Homo sapiens, UniProt Q01064)
Experiment: In vitro HTRF PDE1 inhibition assay (PDE1B)
Format: biochemical
Settings: Table 22
Endpoint Label: IC50

>>> reading("CC(C)c1ncc2c(=O)n3c(nn12)N(CCOCCO)CCC3")
"1 to 10 µM"
>>> reading("CC(C)c1ncc2c(=O)n3c(nn12)N(C(=O)CC1CCOCC1)CCC3")
"1 to 10 µM"
>>> reading("N#Cc1cccc(CCCN2CCCn3c2nn2c(C4CCOCC4)ncc2c3=O)c1")
"< 1 µM"
>>> reading("CC(C)c1ncc2c(=O)n3c(nn12)N(CCOC(F)(F)F)CCC3")
"< 1 µM"
>>> reading("COc1ccc(C2CCn3c(nn4c(C(C)C)ncc4c3=O)O2)cc1 (stereo not shown)")
"< 1 µM"
>>> reading("O=c1c2cnc(C3CCOCC3)n2nc2n1CCCN2CCCCCO")
"< 1 µM"
>>> reading("CC(C)c1ncc2c(=O)n3c(nn12)N(Cc1ccc(Cl)cc1)CCC3")
"< 1 µM"
